The measured values listed here are drawn from patent US20070077617.

biological target: fusion protein PRM
Sequence (chain, as listed by the source): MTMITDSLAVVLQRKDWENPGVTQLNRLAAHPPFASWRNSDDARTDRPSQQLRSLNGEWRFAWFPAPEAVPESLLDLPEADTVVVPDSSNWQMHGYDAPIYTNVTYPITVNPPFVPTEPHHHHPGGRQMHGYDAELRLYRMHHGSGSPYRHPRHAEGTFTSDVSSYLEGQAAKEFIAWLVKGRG
Hi there, I'd appreciate the recorded relative cleavage efficiency for every entry that follows.

Record summary for OmpT protease variant OmpT D97T (protein) STETLSFTPDNINADISLGTLSGKTKERVYLAEEGGRKVSQLDWKFNNAAIIKGAINWDLMPQISIGAAGWTTLGSRGGNMVDQDWMDSSNPGTWTTESRHPDTQLNYANEFDLNIKGWLLNEPNYRLGLMAGYQESRYSFTARGGSYIYSSEEGFRDDIGSFPNGERAIGYKQRFKMPYIGLTGSYRYEDFELGGTFKYSGWVESSDNDEHYDPGKRITYRSKVKDQNYYSVAVNAGYYVTPNAKVYVEGAWNRVTNKKGNTSLYDHNNNTSDYSKNGAGIENYNFITTAGLKYTF : reported relative cleavage efficiency = < 3%

Record summary for OmpT protease (wild-type, E. coli mature OmpT protease) (protein) STETLSFTPDNINADISLGTLSGKTKERVYLAEEGGRKVSQLDWKFNNAAIIKGAINWDLMPQISIGAAGWTTLGSRGGNMVDQDWMDSSNPGTWTDESRHPDTQLNYANEFDLNIKGWLLNEPNYRLGLMAGYQESRYSFTARGGSYIYSSEEGFRDDIGSFPNGERAIGYKQRFKMPYIGLTGSYRYEDFELGGTFKYSGWVESSDNDEHYDPGKRITYRSKVKDQNYYSVAVNAGYYVTPNAKVYVEGAWNRVTNKKGNTSLYDHNNNTSDYSKNGAGIENYNFITTAGLKYTF : reported relative cleavage efficiency = < 3%
